- subject_of_test: UniProt P09917
- test_name: Inhibition of 5-lipoxygenase in S100 supernatant assessed as inhibition of (5(S)-hydroperoxy-6-trans-8,11,14-cis-eicosatetraenoic acid production preincubated for 15 mins measured after 10 mins by HPLC method
Each entry below lists one item and its recorded log10 of IC50 value.
Give log10 of IC50, with IC50 taken in µM.

- smiles_input: "Cc1ccc(C2=NC(=O)/C(=C/c3ccccc3)S2)cc1"
  log10 of IC50: -0.46
- smiles_input: "COc1ccc(/C=C2\\SC(c3ccc(C)cc3)=NC2=O)cc1"
  log10 of IC50: -0.52
- smiles_input: "COc1ccc(/C=C2\\SC(c3ccc(C(C)=O)cc3)=NC2=O)cc1"
  log10 of IC50: -0.96
- smiles_input: "CCOc1ccc(/C=C2\\SC(c3ccccc3)=NC2=O)cc1"
  log10 of IC50: -0.30
- smiles_input: "Cc1ccc(C2=NC(=O)/C(=C/c3cccc(Cl)c3)S2)cc1"
  log10 of IC50: -0.52
- smiles_input: "COc1ccc(/C=C2\\SC(c3ccc(O)cc3)=NC2=O)cc1"
  log10 of IC50: -0.19
- smiles_input: "COc1cc(/C=C2\\SC(c3ccc(C)cc3)=NC2=O)cc(Cl)c1O"
  log10 of IC50: 0.43
- smiles_input: "COC(=O)COc1ccc(/C=C2\\SC(c3ccc(C)cc3)=NC2=O)cc1"
  log10 of IC50: -0.72
- smiles_input: "COc1cc(/C=C2\\SC(c3ccccc3)=NC2=O)cc([N+](=O)[O-])c1O"
  log10 of IC50: 0.48
- smiles_input: "COC(=O)COc1ccc(C2=NC(=O)/C(=C/c3ccc(OC)cc3)S2)cc1"
  log10 of IC50: -0.24

Now examine the next entry.
Prompt: Could you share which log10 of IC50 value was measured for `COc1ccc(/C=C2\SC(c3cccc(C(C)=O)c3)=NC2=O)cc1` ?
Response: -0.89

###

- subject_of_test: Polyunsaturated fatty acid 5-lipoxygenase (Homo sapiens)
- test_name: Inhibition of 5-lipoxygenase
pIC50: −log10 of the molar value.
endpoint_label: pIC50

Prompt: Could you share which pIC50 value was measured for `C/C(=C1/SC(O)=NC1=O)c1cc(-c2ccccc2)c(O)c(-c2ccccc2)c1` ?
Response: < 5.00

###

Each entry below lists one item and its recorded pIC50 value.
- subject_of_test: Polyunsaturated fatty acid 5-lipoxygenase (Homo sapiens, UniProt P09917)
- Sequence (P09917 whole entry): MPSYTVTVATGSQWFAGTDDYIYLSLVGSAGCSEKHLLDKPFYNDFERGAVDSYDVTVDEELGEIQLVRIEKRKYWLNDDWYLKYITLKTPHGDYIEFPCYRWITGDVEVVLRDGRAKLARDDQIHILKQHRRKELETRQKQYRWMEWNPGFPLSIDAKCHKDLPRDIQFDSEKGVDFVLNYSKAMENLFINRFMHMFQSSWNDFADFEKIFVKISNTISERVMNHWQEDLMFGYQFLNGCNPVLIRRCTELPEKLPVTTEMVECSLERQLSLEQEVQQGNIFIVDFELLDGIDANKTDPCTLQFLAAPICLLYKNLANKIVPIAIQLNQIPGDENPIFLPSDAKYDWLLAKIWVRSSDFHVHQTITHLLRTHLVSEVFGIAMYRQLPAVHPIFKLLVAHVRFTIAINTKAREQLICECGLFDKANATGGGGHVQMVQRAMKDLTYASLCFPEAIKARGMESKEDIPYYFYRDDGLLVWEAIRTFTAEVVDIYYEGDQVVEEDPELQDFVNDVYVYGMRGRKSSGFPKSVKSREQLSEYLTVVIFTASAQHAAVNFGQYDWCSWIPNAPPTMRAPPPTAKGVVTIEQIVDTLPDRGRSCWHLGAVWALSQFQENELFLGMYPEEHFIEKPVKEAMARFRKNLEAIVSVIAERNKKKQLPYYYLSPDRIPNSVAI
- test_name: Inhibition of 5-lipoxygenase in human polymorphonuclear leukocytes assessed as inhibition of LTB4 production preincubated for 15 mins measured after 10 mins by HPLC method
- Assay type: cell-based
- test_context: pooled result: one value given for 2 cell lines, strains, targets or settings
Please treat pIC50 as minus the base-10 logarithm of the molar concentration.

Here is how some molecules turned out for pIC50.
- smiles_input: "COc1cccc(/C=C2\\SC(c3ccccc3)=NC2=O)c1O"
  recorded_measurement: 6.32
- smiles_input: "COc1ccc(/C=C2\\SC(c3cccc(C(C)=O)c3)=NC2=O)cc1"
  recorded_measurement: 6.42
- smiles_input: "CCOc1ccc(/C=C2\\SC(c3ccccc3)=NC2=O)cc1"
  recorded_measurement: 5.70
- smiles_input: "Cc1ccc(C2=NC(=O)/C(=C/c3cccc(Cl)c3)S2)cc1"
  recorded_measurement: 6.24
- smiles_input: "COc1ccc(/C=C2\\SC(c3cccc(F)c3)=NC2=O)cc1"
  recorded_measurement: 6.62

Prompt: Could you share which pIC50 value was measured for `Cc1ccc(C2=NC(=O)/C(=C/C=C/c3ccccc3)S2)cc1` ?
Response: 6.40

Prompt: Entry to check: `COc1cc(/C=C2\SC(c3ccccc3)=NC2=O)cc([N+](=O)[O-])c1O`
Response: 5.36

Prompt: Entry to check: `CCCOc1ccc(/C=C2\SC(N3CCCCCC3)=NC2=O)cc1`
Response: 4.92

Prompt: Entry to check: `COc1ccc(/C=C2\SC(c3ccc(C)cc3)=NC2=O)cc1`
Response: 6.18

Prompt: Entry to check: `CC(C)(C)c1ccc(/C=C2\SC(c3ccccc3)=NC2=O)cc1`
Response: 6.04

Prompt: Entry to check: `COc1cccc(/C=C2\SC(c3ccc(C)cc3)=NC2=O)c1O`
Response: 6.10

Prompt: Entry to check: `COC(=O)COc1ccc(C2=NC(=O)/C(=C/c3ccc(OC)cc3)S2)cc1`
Response: 6.07

Prompt: Entry to check: `COc1ccc(/C=C2\SC(c3ccc(C)cc3)=NC2=O)c(OC)c1`
Response: 5.69

Prompt: Entry to check: `COc1ccc(/C=C2\SC(c3ccccc3)=NC2=O)cc1`
Response: 6.28

Prompt: Entry to check: `CN(C)c1ccc(/C=C2\SC(N3CCCCC3)=NC2=O)cc1`
Response: 4.70

Prompt: Entry to check: `COc1ccc(/C=C2\SC(c3ccc(O)cc3)=NC2=O)cc1`
Response: 5.77

Prompt: Entry to check: `O=C1N=C(c2ccc(Cl)cc2)S/C1=C\c1ccc(O)cc1`
Response: 6.40
